Tested on: Human immunodeficiency virus 1
method: Viral spread inhibitory concentration against HIV-1 strain NL4-3 in MT-4 human T-lymphoid cells
Format: functional
details: Human immunodeficiency virus 1, T-lymphoid; read-out: CIC95
measured-endpoint: IC95 (nM)

>>> reported("N#Cc1cccc(-n2ccc(CN3CCN(C[C@@H](O)C[C@@H](Cc4cccnc4)C(=O)N[C@H]4c5ccccc5OC[C@H]4O)[C@H](C(=O)NCC(F)(F)F)C3)c2)c1")
62
>>> reported("O=C(N[C@H]1c2ccccc2OC[C@H]1O)[C@H](Cc1cccnc1)C[C@H](O)CN1CCN(Cc2ccn(-c3ccc(C(F)(F)F)cc3)c2)C[C@H]1C(=O)NCC(F)(F)F")
15
>>> reported("N#Cc1ccc(-n2ccc(CN3CCN(C[C@@H](O)C[C@@H](Cc4cccnc4)C(=O)N[C@H]4c5ccccc5OC[C@H]4O)[C@H](C(=O)NCC(F)(F)F)C3)c2)cc1")
62
>>> reported("O=C(N[C@H]1c2ccccc2OC[C@H]1O)[C@H](Cc1cccnc1)C[C@H](O)CN1CCN(Cc2ccn(-c3ccccc3)c2)C[C@H]1C(=O)NCC(F)(F)F")
15
>>> reported("N#Cc1ccccc1-n1ccc(CN2CCN(C[C@@H](O)C[C@@H](Cc3cccnc3)C(=O)N[C@H]3c4ccccc4OC[C@H]3O)[C@H](C(=O)NCC(F)(F)F)C2)c1")
46
>>> reported("O=C(N[C@H]1c2ccccc2OC[C@H]1O)[C@H](Cc1cccnc1)C[C@H](O)CN1CCN(Cc2ccn(-c3ccc(Cl)c(Cl)c3)c2)C[C@H]1C(=O)NCC(F)(F)F")
15
>>> reported("O=C(N[C@H]1c2ccccc2OC[C@H]1O)[C@H](Cc1cccnc1)C[C@H](O)CN1CCN(Cc2ccn(-c3ccccc3C(F)(F)F)c2)C[C@H]1C(=O)NCC(F)(F)F")
38
>>> reported("O=C(N[C@H]1c2ccccc2OC[C@H]1O)[C@H](Cc1cccnc1)C[C@H](O)CN1CCN(Cc2ccn(-c3ccc(F)cc3)c2)C[C@H]1C(=O)NCC(F)(F)F")
15

----------
method: Cmax value determined in dog at a dose of 5 mg/kg by oral administration
Format: ADME, organism-based, Canis lupus familiaris
Parameters: dose 5 mg/kg, route oral
details: in vivo
measured-endpoint: Cmax (nM)

>>> reported("O=C(N[C@H]1c2ccccc2OC[C@H]1O)[C@H](Cc1cccnc1)C[C@H](O)CN1CCN(Cc2ccc(-c3ccccc3)o2)C[C@H]1C(=O)NCC(F)(F)F")
100

----------
Tested on: Canis familiaris
method: Cmax value determined in dog at a dose of 10 mg/kg by oral administration along with indinavir (10 mg/kg)
details: in vivo
measured-endpoint: Cmax (µM)

>>> reported("O=C(N[C@H]1c2ccccc2OC[C@H]1O)[C@H](Cc1cccnc1)C[C@H](O)CN1CCN(Cc2ccc(-c3ccccc3)o2)C[C@H]1C(=O)NCC(F)(F)F")
6.1

----------
method: Cmax value determined in dog at a dose of […] by oral administration along with […] (10 mg/kg)
Assay type: ADME, organism-based, Canis lupus familiaris
Design: route oral
details: in vivo
measured-endpoint: Cmax (µM)

>>> reported("CC(C)(C)NC(=O)[C@@H]1CN(Cc2cccnc2)CCN1C[C@@H](O)C[C@@H](Cc1ccccc1)C(=O)N[C@H]1c2ccccc2C[C@H]1O.O")
11.4

----------
method: Plasma clearance in human liver microsomes
Format: ADME, Microsome
Each record here notes measured CLint scaled.
measured-endpoint: CLint scaled (mL/min/kg)

>>> reported("O=C(N[C@H]1c2ccccc2OC[C@H]1O)[C@H](Cc1cccnc1)C[C@H](O)CN1CCN(Cc2ccc(-c3ccccc3)o2)C[C@H]1C(=O)NCC(F)(F)F")
238
>>> reported("O=C(N[C@H]1c2ccccc2OC[C@H]1O)[C@H](Cc1cccnc1)C[C@H](O)CN1CCN(Cc2ccn(-c3ccc(Cl)cc3)c2)C[C@H]1C(=O)NCC(F)(F)F")
229
>>> reported("O=C(N[C@H]1c2ccccc2OC[C@H]1O)[C@H](Cc1cccnc1)C[C@H](O)CN1CCN(Cc2ccn(-c3ccccc3)c2)C[C@H]1C(=O)NCC(F)(F)F")
332
>>> reported("O=C(N[C@H]1c2ccccc2OC[C@H]1O)[C@H](Cc1cccnc1)C[C@H](O)CN1CCN(Cc2ccn(-c3ccc(F)c(F)c3F)c2)C[C@H]1C(=O)NCC(F)(F)F")
218
>>> reported("O=C(N[C@H]1c2ccccc2OC[C@H]1O)[C@H](Cc1cccnc1)C[C@H](O)CN1CCN(Cc2ccn(-c3cccc(Cl)c3)c2)C[C@H]1C(=O)NCC(F)(F)F")
307

Entry source: ChEMBL document CHEMBL1146635
